# Tested on: SKBR3-P
# ASSAY EXPLANATION: area under growth-rate inhibition curve (AUC GRI) (dimensionless (GR-based AUC)); higher = less growth inhibition
# CONDITION SUMMARY: exposure time: 72 h; concentrations: 0.1, 1, 10 uM
# area under growth-rate inhibition curve annotations
VALUE KIND: area under growth-rate inhibition curve

* CC(C)Oc1ccc(-c2nc(-c3cccc4c3CC[C@@H]4NCCO)no2)cc1C#N [Ozanimod (RPC1063)] | 0.984
* COCCCC/C(=N\OCCN)c1ccc(C(F)(F)F)cc1.O=C(O)/C=C\C(=O)O [Fluvoxamine maleate] | 1.02
* CNCCCC12CCC(c3ccccc31)c1ccccc12.[Cl-].[H+] [Maprotiline HCl] | 0.982
* Cl.NCc1cnc(S)n1C1CCc2c(F)cc(F)cc2C1 (stereo not drawn) [Nepicastat (SYN-117) HCl] | 1.02
* Nc1ncnc2c1c(I)cn2[C@@H]1O[C@H](CO)[C@H](O)C1O (some centres not stated) | 0.632
* Cc1cccc(C(C)c2c[nH]cn2)c1C (configuration not stated) | 1.04
* CCOc1cc(N)c(Cl)cc1C(=O)NCC1CN(Cc2ccc(F)cc2)CCO1.O=C(O)CC(O)(CC(=O)O)C(=O)O (configuration not stated) [Mosapride Citrate] | 1.01
* COc1ccc(C[C@H](C)NC[C@@H](O)c2ccc(O)c(NC=O)c2)cc1.COc1ccc(C[C@H](C)NC[C@@H](O)c2ccc(O)c(NC=O)c2)cc1.O=C(O)/C=C/C(=O)O [Formoterol Hemifumarate] | 1.03
* CN1CCC(=C2c3ccccc3CC(=O)c3sccc32)CC1.O=C(O)/C=C/C(=O)O [Ketotifen Fumarate] | 1.01
* CC(C)COc1ccc(CNC(=O)N(Cc2ccc(F)cc2)C2CCN(C)CC2)cc1 | 0.856
* C[C@H](Cc1cc2c(c(C(N)=O)c1)N(CCCO)CC2)NCCOc1ccccc1OCC(F)(F)F | 1.03
* Nc1nc(CC(=O)Nc2ccc(CCNCC(O)c3ccccc3)cc2)cs1 (configuration not stated) | 1.02
* CN1CCN(C2=Nc3ccccc3Oc3ccc(Cl)cc32)CC1 | 1.02
* CC12CCC3=C4CCC(=O)C=C4CCC3C1CCC2(O)CC#N (configuration not stated) | 1.01
* CCCN(CCc1cccs1)[C@H]1CCc2c(O)cccc2C1 | 0.984
* NCCCCCNCC12CC3CC(CC(C3)C1)C2.[Br-].[Br-].[H+].[H+] [IEM 1754 dihydrobroMide] | 1.03
* COc1ccc(OC)c(C(O)C(C)N)c1 (configuration not stated) | 1.05

====

# area under growth-rate inhibition curve annotations
# Test system: SKBR3-P
# ASSAY EXPLANATION: area under growth-rate inhibition curve (AUC GRI) (dimensionless (GR-based AUC)); higher = less growth inhibition
# CONDITION SUMMARY: exposure time: 72 h; concentrations: 0.1, 1, 10 uM
Structures can show the parent of a compound that is named as a salt.
VALUE KIND: area under growth-rate inhibition curve

- CC[C@H](c1ccc(O)cc1)[C@@H](CC)c1ccc(O)cc1 [Hexestrol]: 0.989
- CN1CCC(=C2c3ccccc3C=Cc3ccccc32)CC1.[Cl-].[H+] [Cyproheptadine HCl]: 1
- OC(CN1CCN(c2cccc(Cl)c2)CC1)C(c1ccccc1)c1ccccc1.[Cl-].[Cl-].[H+].[H+] (configuration not stated): 0.982
- Fc1ccc([C@@H]2CCNC[C@H]2COc2ccc3c(c2)OCO3)cc1.[Cl-].[H+] [Paroxetine HCl]: 0.955
- [Cl-].[H+].c1ccc2c(c1)CCCC2C1=NCCN1 (configuration not stated) [Tetrahydrozoline HCl]: 1.02
- O=C(Nc1c(Cl)cncc1Cl)c1ccc(OC(F)F)c(OCC2CC2)c1 [Roflumilast]: 1.01
- O=C(O)C=CC(=O)O.OCCOCCN1CCN(C2=Nc3ccccc3Sc3ccccc32)CC1.OCCOCCN1CCN(C2=Nc3ccccc3Sc3ccccc32)CC1 [Quetiapine Fumarate]: 1.04
- COc1ccccc1N1CCN(CCN(C(=O)C2CCCCC2)c2ccccn2)CC1.O=C(O)/C=C\C(=O)O: 0.976
- CN(C)CCC(c1ccc(Cl)cc1)c1ccccn1.O=C(O)/C=C\C(=O)O (configuration not stated) [Chlorpheniramine Maleate]: 1.01
- CN/C(=C\[N+](=O)[O-])NCCSCc1csc(CN(C)C)n1 [Nizatidine]: 1
- CCCCc1ncc(C=C(Cc2cccs2)C(=O)O)n1Cc1ccc(C(=O)O)cc1.CS(=O)(=O)O [Eprosartan mesylate]: 1.03
- CCC1(c2c[nH]cn2)Cc2ccccc2C1 [Atipamezole hydrochloride]: 0.985
- COc1ccc(C(=O)N2CCCC2=O)cc1 [Aniracetam]: 1.01
- CCN1CCCC1CNC(=O)c1cc(S(=O)(=O)CC)c(N)cc1OC (configuration not stated) [Amisulpride]: 1.02
- CCN(CC)CCCCN1c2ccccc2Oc2ccc(Cl)cc21.Cl [10-DEBC hydrochlorid]: 1.04
- CN1CCN(C2=Nc3cc(Cl)ccc3Nc3ccccc32)CC1 [Clozapine]: 1.01
- CS(=O)(=O)[O-].C[NH+]1[C@@H]2CC[C@H]1C[C@@H](OC(c1ccccc1)c1ccccc1)C2 [Benztropine mesylate]: 0.986

====

# area under growth-rate inhibition curve annotations
# Tested on: SKBR3-P
# ASSAY EXPLANATION: area under growth-rate inhibition curve (AUC GRI) (dimensionless (GR-based AUC)); higher = less growth inhibition
# CONDITION SUMMARY: exposure time: 72 h; concentrations: 0.1, 1, 10 uM
VALUE KIND: area under growth-rate inhibition curve

- CC(NCCc1ccc(O)cc1)C(O)c1ccc(O)cc1.[Cl-].[H+] (stereo not drawn) [Ritodrine HCl]: 1.02
- Cl.Clc1ccc2nsnc2c1NC1=NCCN1 [Tizanidine HCl]: 1
- C[C@]12CC[C@@H]3c4ccc(O)cc4CC[C@H]3[C@@H]1CCC2=O [Estrone]: 1.02

====

# System: SKBR3-P
# ASSAY EXPLANATION: area under growth-rate inhibition curve (AUC GRI) (dimensionless (GR-based AUC)); higher = less growth inhibition
# CONDITION SUMMARY: exposure time: 72 h; concentrations: 0.1, 1, 10 uM
VALUE KIND: area under growth-rate inhibition curve

- Cc1cc(NC(=O)Nc2ccc(N(C)C)cc2)c2cc(F)cc(F)c2n1: 1
- C#C[C@]1(O)C=C[C@H]2[C@@H]3CCC4=CC(=O)CC[C@@H]4[C@H]3CC[C@@]21CC: 1.01
- CN1C2CCC1CC(OC(=O)C(CO)c1ccccc1)C2 (stereo unspecified) [Atropine]: 1.03
- O=C(CCCN1CC=C(n2c(=O)[nH]c3ccccc32)CC1)c1ccc(F)cc1: 1.02
- N#Cc1cc2cc(CN3CCC(Nc4ncnc5sc(CC(F)(F)F)cc45)CC3)ccc2[nH]1: 0.895
- CCOc1ccc(Cc2cc([C@@H]3O[C@H](CO)[C@@H](O)[C@H](O)[C@H]3O)ccc2Cl)cc1: 1.01
- COc1nc(C)cnc1NS(=O)(=O)c1cccnc1-c1ccc(-c2nnco2)cc1 [Zibotentan (ZD4054)]: 0.958
- OCCN1CCN(CCCN2c3ccccc3Sc3ccc(C(F)(F)F)cc32)CC1.[Cl-].[Cl-].[H+].[H+] [Fluphenazine (dihydrochloride)]: 0.975
- COC(c1ccccc1)(c1ccccc1)C(Oc1nc(C)cc(C)n1)C(=O)O (stereo unspecified): 1.03
- CCc1ccc(OCc2ccccc2C(=O)Nc2ccc3nc(C)cc(N)c3c2)cc1.[Cl-].[H+]: 0.778
- CN(C)CCc1c[nH]c2ccc(CS(=O)(=O)N3CCCC3)cc12.O=C(O)CC(O)C(=O)O [Almotriptan Malate]: 1.02
- CCOC(=O)NC1CCC2C(C1)CC1C(=O)OC(C)C1C2C=Cc1ccc(-c2cccc(F)c2)cn1 (stereo unspecified): 0.944
- CCCN[C@H]1CCc2nc(N)sc2C1 [Pramipexole]: 1.01
- C=C[C@@]1(C)CC(=O)[C@]2(O)[C@@]3(C)[C@@H](O)CCC(C)(C)[C@@H]3[C@H](O)[C@H](OC(C)=O)[C@@]2(C)O1: 1.03
- CN(C)C(=O)C(CCN1CCC(O)(c2ccc(Cl)cc2)CC1)(c1ccccc1)c1ccccc1.[Cl-].[H+] [Loperamide HCl]: 0.943
- OC[C@H]1O[C@@H](c2ccc(Cl)c(Cc3ccc(O[C@H]4CCOC4)cc3)c2)[C@H](O)[C@@H](O)[C@@H]1O: 1.03

====

# Tested on: SKBR3-P
# ASSAY EXPLANATION: area under growth-rate inhibition curve (AUC GRI) (dimensionless (GR-based AUC)); higher = less growth inhibition
# CONDITION SUMMARY: exposure time: 72 h; concentrations: 0.1, 1, 10 uM
# area under growth-rate inhibition curve annotations
VALUE KIND: area under growth-rate inhibition curve

• CCC1(c2ccccc2)C(=O)NCNC1=O = 1.03
• NCC(=O)O = 1.03
• Cc1cncc(CN2CCC(=C3c4ccc(Cl)cc4CCc4cccnc43)CC2)c1.O=C(O)/C=C/C(=O)O [Rupatadine Fumarate] = 0.966
• CCOC(=O)c1ncn2c1CN(C)C(=O)c1cc(F)ccc1-2 = 0.989
• CC(=O)NCCCS(=O)(=O)[O-].CC(=O)NCCCS(=O)(=O)[O-].[Ca+2] [Acamprosate calcium] = 1.01
